- measurement.description: Solubility in water at room temperature
measured.metric: solubility

Recorded solubility of CC1(C)O[C@@H]2C[C@H]3[C@@H]4CCC5=CC(=O)C=C[C@]5(C)[C@@]4(F)[C@@H](O)C[C@]3(C)[C@]2(C(=O)CO)O1 [Triamcinolone acetonide] , please. ~20 µg/mL

* * *

- measurement.description: physchem
- assay.context: water
measured.metric: solubility

Recorded solubility of C[C@@H]1C[C@H]2[C@@H]3CCC4=CC(=O)C=C[C@]4(C)[C@@]3(F)[C@@H](O)C[C@]2(C)[C@@]1(O)C(=O)CO , please. ~85 µg/mL
